molecular target: T1, human CD137 expressed on the surface of CHO cells (human, UniProt Q07011 24-255); assay: FMAT ligand inhibition, CD137 Ligand on CHO human CD137 cells
T1 construct: Also used for the Jurkat reporter cells that express human CD137 (functional rows); also called CHO human CD137 cells; CHO huCD137
T1 sequence (Q07011 24-255 limits assumed): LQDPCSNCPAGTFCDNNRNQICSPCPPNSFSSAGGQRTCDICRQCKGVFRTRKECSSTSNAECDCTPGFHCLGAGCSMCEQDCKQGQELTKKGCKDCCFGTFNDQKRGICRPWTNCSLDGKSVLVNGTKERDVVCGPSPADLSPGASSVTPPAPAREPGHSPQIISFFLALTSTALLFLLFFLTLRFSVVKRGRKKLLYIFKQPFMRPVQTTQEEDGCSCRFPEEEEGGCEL
Quantity name: IC50

Provide IC50 value for the following binder: Humabody VH 1.100 (VHH, human single VH domain) VHH: EVQLVESGGGLVQPGGSLRLSCAASGFTFSSHWMTWFRQAPGKGLEWVAHIKEDESEKYYVDSVKGRFTISRDNAKNSLYLQMNSLRAEDTAVYYCARGGDGYSISHFGVDVWGQGTTVTVSS
1.4 nM

Using known records, supply IC50 for Humabody VH 1.109 (VHH, human single VH domain) VHH: EVQLVESGGGLVQPGGSLRLSCAATGFTLSNYWMNWVRQAPGKGLEWVANINQDGSERYYVDSVKGRFTISRDNAKNSLYLQMSSLRAEDTAVYYCARGGEGYGVDHYGLDVSGQGTTVTVSS
0.9 nM

Entry source: patent US20200362047A1
